This collection of values is drawn from PubChem BioAssay (Tox21).

study.system: Progesterone receptor (Homo sapiens)
assay.protocol: qHTS assay to identify small molecule antagonists of the progesterone receptor (PR) signaling pathway (AID 1346795); note: % is set by controls: 0 for no effect and ±100 for the full control effect
assay.conditions: PR-UAS-bla HEK293T, beta-lactamase FRET ratio, 16 h; series mostly up to 92.4 µM
Records with an inconclusive call do not appear. Activity calls are given as the source filed them. Calls come from the whole dose curve; as a rule, active = well fitted inhibition curve with a large enough effect in the signal ratio in the repeat runs (not every such curve was filed as active); inconclusive = weak or mixed curves; inactive = flat fitted curve, though single readings scatter; the % refers to the signal ratio.
recorded.metric: outcome

>>> experimental_result("CC(C)COC(=O)c1ccccc1O")
"inactive"
>>> experimental_result("Nc1ncnc2c1ncn2Cc1c(F)cccc1Cl")
"inactive"
>>> experimental_result("C1=C\\CC/C=C\\CC/C=C\\CC/1")
"inactive"
>>> experimental_result("COC(=O)[C@H]1[C@H]2C[C@@H]3c4[nH]c5cc(OC)ccc5c4CCN3C[C@H]2C[C@@H](OC(=O)COc2ccc(OC)cc2)[C@@H]1OC")
"inactive"
>>> experimental_result("CC1=CCC2C(C1)C2(C)C (configuration not stated)")
"inactive"
>>> experimental_result("COc1nc(C)nc(N)n1")
"inactive"
>>> experimental_result("Cc1cc(C)cc(OCC2CNC(=O)O2)c1 (configuration not stated)")
"inactive"

---

assay.protocol: qHTS assay to identify small molecule antagonists of the estrogen receptor alpha (ER-alpha) signaling pathway using the BG1 cell line - cell viability counter screen (AID 743081);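 note: compound given together with 17beta-estradiol as the ER stimulus; % is set by controls: 0 for no effect and ±100 for the full control effect; nearly all actives have a fitted effect of over 45% in size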
assay.conditions: BG1Luc4E2 viability, CellTiter-Fluor, 22 h; series mostly up to 70.3 µM
Inconclusive results are not listed. Active and inactive are the calls of the source. The call rests on the fitted dose curve; in most records, active means well fitted cell-killing curve with a large enough effect in the repeat runs; inconclusive means weak or mixed curves, or effect the other way; inactive means flat fitted curve, though single readings scatter.
recorded.metric: activity change, negative = cytotoxicity

>>> experimental_result("O=S(=O)(O)c1ccccc1O")
"inactive"
>>> experimental_result("CC(=O)O[C@H](CC(=O)[O-])C[N+](C)(C)C")
"inactive"
>>> experimental_result("O=[N+]([O-])c1ccc(Oc2ccc([N+](=O)[O-])cc2)cc1")
"inactive"
>>> experimental_result("C1COCCO1")
"inactive"
>>> experimental_result("FC(F)(F)C(F)(F)C(F)(F)C(F)(F)C(F)(F)C(F)(F)C(F)(F)C(F)(F)C(F)(F)C(F)(F)F")
"7.45% [at 8.47 µM] (inactive)"
>>> experimental_result("Oc1cc(O)c2c(c1)O[C@H](c1ccc(O)c(O)c1)[C@H](O)C2")
"inactive"
>>> experimental_result("CCCCCOC(=O)Nc1nc(=O)n([C@@H]2O[C@H](C)[C@@H](O)[C@H]2O)cc1F")
"inactive"
>>> experimental_result("CC(O)CN(CCCN(C)C)CCCN(C)C (stereo not given)")
"inactive"
>>> experimental_result("NS(=O)(=O)c1cc2c(cc1C(F)(F)F)NC(Cc1ccccc1)NS2(=O)=O (stereo not given)")
"inactive"
>>> experimental_result("CC(=O)CCc1ccc(O)cc1")
"inactive"
>>> experimental_result("CC1=CCC2C(C1)C2(C)C (stereo not given)")
"inactive"
>>> experimental_result("COC(=O)c1ccc(C(=O)OC)c(C(=O)OC)c1")
"inactive"
>>> experimental_result("OCC(O)[C@@H](O)[C@H](O)[C@H](O)CO[C@H]1O[C@H](CO)[C@@H](O)[C@H](O)[C@H]1O (stereo not given in full)")
"inactive"
>>> experimental_result("CCn1cc(C(=O)O)c(=O)c2cc(F)c(N3CCN(C)CC3)cc21")
"inactive"
>>> experimental_result("CCOC(=O)Nc1ccc2c(c1)N(C(=O)CCN1CCOCC1)c1ccccc1S2")
"inactive"
>>> experimental_result("COCc1ccc(COC)cc1")
"inactive"
>>> experimental_result("CCO[Si](C)(OCC)OCC")
"inactive"
>>> experimental_result("O=C1OC(=O)c2cc([N+](=O)[O-])ccc21")
"inactive"
>>> experimental_result("NC(=O)c1ncn([C@@H]2O[C@H](CO)[C@@H](O)[C@H]2O)c1N")
"inactive"
>>> experimental_result("Cc1nc(-c2ccc(OCC(C)C)c(C#N)c2)sc1C(=O)O")
"inactive"
>>> experimental_result("COC(C(=O)O)c1ccccc1 (stereo not given)")
"inactive"
>>> experimental_result("O=S(=O)(c1cccc2cnccc12)N1CCCNCC1")
"inactive"
>>> experimental_result("COc1ccc(NC(C)=O)cc1")
"inactive"
>>> experimental_result("CCCCCN(CCCCC)C(=O)C(CCC(=O)O)NC(=O)c1ccc(Cl)c(Cl)c1 (stereo not given)")
"inactive"
>>> experimental_result("Nc1ccn(C2CO[C@H](CO)O2)c(=O)n1 (stereo not given in full)")
"inactive"
